- Tested on: NCI-H460 lung
- experimental.protocol: NCI-60 one-dose screen, 48 h (100 = growth as untreated, 0 = no growth, -100 = all killed)
- run.conditions: 10 µM
- Description: Growth inhibition of the NCI-H460 human Non-Small Cell Lung tumor cell line is measured as a screen for anti-cancer activity. Cells are grown in 96 well plates and exposed to the test compound for 48 hours. Compounds are tested at a single concentration, which is 10^-5 M for most compounds. The reported endpoint is percent growth (GI% or GIPRCNT), where numbers from 0 - 100% represent growth inhibition, and numbers from -100% - 0 represent cell death. […]
The panel holds about 83,000 compounds, 20% with a hit somewhere; the sample as a whole holds those more often. Activity calls are given as the source filed them. Rule for the calls: active = growth percent below 10; inactive = the rest.

smiles.data | growth
Cc1ccn2c(C(=O)c3ccc(Br)cc3)cc(-c3cc(-c4ccc(N(C)C)cc4)c(C#N)c(N)n3)c2c1 | 54.4% (inactive)
Oc1ccc(/C=C2\CCCc3cc4ccc(O)cc4[o+]c32)c(O)c1 | 19.8% (inactive)
CN(C)c1nc(NCCNS(=O)(=O)c2ccc(C(=O)/C=C/c3ccccc3)cc2)nc(Nc2ccc(F)cc2)n1 | 14.9% (inactive)
O=C(Cn1cc(CSc2nnc3oc4ccccc4n23)nn1)Nc1cccc(Cl)c1 | 91.1% (inactive)
C/C(=N\N=C\c1ccc(Cl)c([N+](=O)[O-])c1)c1ccc2c(c1)Nc1ccccc1S2 | 1.22% (active)
O=C1c2ccccc2C(=O)c2c1c(C(=O)c1ccc(Cl)cc1)n1c2ccc2c3ccccc3ccc21 | 109% (inactive)
COc1ccc(-c2cc(-c3cc(C(=O)c4ccccc4)n4ccc(C)cc34)nc(N)c2C#N)cc1 | 44.5% (inactive)
Cc1ccc(-c2ccc(SCC(=O)Nc3ccc(Cl)c(C(F)(F)F)c3)nn2)cc1 | 13.8% (inactive)
O=C(CSc1nnc(-c2ccc3nc(-c4ccccc4)[nH]c3c2)o1)Nc1ccc(Br)cc1 | 6.71% (active)

====

- Test system: SNB-19 CNS
- experimental.protocol: NCI-60 one-dose screen, 48 h
- run.conditions: 10 µM
This is part of a sample that, as a whole, favours compounds with a hit. Of some 83,000 tested, about 20% had one in any assay. Active and inactive are the calls of the source. Rule for the calls: active = growth percent below 10; inactive = the rest.
Classes used: active, inactive

smiles.data | class
COc1ccc(C(=O)Nc2sc3c(c2C#N)CCC(=O)C3)cc1C(F)(F)F | active
O=c1[nH]c2ccccc2cc1CSc1ccc(Nc2nccc(-c3ccc(C(F)(F)F)cc3)n2)cc1 | inactive
Cc1ccn2c(C(=O)c3ccccc3)cc(-c3cc(-c4ccc(N(C)C)cc4)c(C#N)c(N)n3)c2c1 | inactive
COc1ccc(N(C)c2cc(C#N)nc3ccccc23)cc1N | inactive
O=c1[nH]c2ccccc2cc1CSc1ccc(Nc2nccc(-c3ccc(Cl)cc3)n2)cc1 | active
C[C@H]1[C@H](C)CC[C@]2(COC(=O)CCC(=O)NCC#CCN3CCNCC3)CC[C@]3(C)C(=CC[C@@H]4[C@@]5(C)CCCNC(C)(C)[C@@H]5CC[C@]43C)[C@H]12 | inactive
C=CC(=O)Nc1nc(-c2cccc(NS(=O)(=O)c3cccc4c(N(C)C)cccc34)c2)cs1 | inactive
CN(C)c1nc(NCCNS(=O)(=O)c2ccc(C(=O)/C=C/c3ccccc3)cc2)nc(Nc2ccc(F)cc2)n1 | inactive

====

- System: HOP-62 NSCLC
- experimental.protocol: NCI-60 one-dose screen, 48 h (100 = growth as untreated, 0 = no growth, -100 = all killed)
- run.conditions: 10 µM
About 83,000 compounds went through this panel and 20% of them were active in at least one assay; those are over-represented in the sample as a whole. The source made the active and inactive calls. The calls were made as follows: active = growth percent below 10; inactive = the rest.
property.name: growth

compound | property.name | result
COc1ccc2[nH]c(O)c(N=NC(=O)COc3ccc(NC(=O)Nc4ccc(Cl)cc4)cc3)c2c1 | growth | -41.1% (active)
O=C(Nc1ccncc1)c1ccc(-n2c(=O)[nH]c3ccccc3c2=O)cc1 | growth | 99% (inactive)
CN1C(=O)/C(=C/c2nccs2)SC1=S | growth | 111% (inactive)
COc1ccc2nc(Cl)c(-c3cc(-c4ccccc4)nc(=O)[nH]3)cc2c1 | growth | 69.9% (inactive)
O=c1oc2ccccc2cc1-c1csc(N=Nc2c(O)[nH]c3ccc(Br)cc23)n1 | growth | 40.2% (inactive)
O=c1oc2ccc(-c3ccc(F)cc3F)cc2c(=O)n1-c1ccc(Cl)c(C(F)(F)F)c1 | growth | -18.8% (active)
COc1cc(C2CC(c3ccccc3)=Nc3c(N)nc(N)nc3N2)ccc1Oc1nc(Nc2ccc(F)cc2)nc(N(C)C)n1 (configuration not stated) | growth | 85.7% (inactive)
Cc1cc(C)nc(NS(=O)(=O)c2ccc(N/C(N)=N/c3nccc(-c4cccs4)n3)cc2)n1 | growth | 83% (inactive)
COc1ccc2[nH]c(=O)c(CSc3nccc(-c4ccc(Cl)cc4)n3)cc2c1 | growth | 32.9% (inactive)
COc1cccc(C(N)=Nc2ccc(OCCCCCCn3cncn3)cc2)c1 | growth | 20.7% (inactive)
CC1=C(c2cc(-c3ccc(Cl)cc3)c(C#N)c(N)n2)C(c2ccccc2)NC(=S)N1 (configuration not stated) | growth | 81.3% (inactive)
Cc1ccc(/C=C/C(=O)c2ccc(S(=O)(=O)NCCNc3nc(Nc4ccc(F)cc4)nc(N(C)C)n3)cc2)cc1 | growth | 56.2% (inactive)
O=C(N/N=C/c1ccc(-c2cccc([N+](=O)[O-])c2)o1)c1[nH]c2ccc(Br)cc2c1-c1ccccc1 | growth | 38.7% (inactive)
CCCCOc1ccc(Nc2nc3ccccc3nc2Nc2ccc(OCCCC)cc2)cc1 | growth | 98.9% (inactive)
COc1ccc(NC(=O)Nc2ccc(OCC(=O)N=Nc3c(O)[nH]c4ccc([N+](=O)[O-])cc34)cc2)cc1 | growth | 40.7% (inactive)
O=S(=O)(c1ccc(Cl)cc1)c1nc(-c2ccccc2)oc1S(=O)(=O)c1ccc(Cl)cc1 | growth | 91.3% (inactive)
COc1cc(NC(=O)c2cc(-c3ccc(F)cc3F)ccc2O)cc(OC)c1OC | growth | 24% (inactive)
Cc1cc(C)nc(/N=C(\N)Nc2ccc(S(=O)(=O)Nc3nc(C)cc(C)n3)cc2)n1 | growth | 104% (inactive)
O=C(Nc1ccc(I)cc1)Nc1nc2ccc([N+](=O)[O-])cc2s1 | growth | -90.4% (active)
CCCCCc1ccc(S(=O)(=O)Nc2cc(-c3csc(N(C)C(C)=O)n3)ccc2N2CCN(C)CC2)cc1 | growth | 54.2% (inactive)
CC1(c2ccccc2)NC(=O)N(CC(=O)Nc2ccc(C(=O)/C=C/c3ccccc3)cc2)C1=O (configuration not stated) | growth | 85.9% (inactive)
O=C(c1ccc(O)cc1)C1[C@H](c2ccc(Br)cc2)[C@@H](c2ccccc2)NC12C(=O)Nc1ccccc12 (some centres not stated) | growth | 39.4% (inactive)
CC(=O)NS(=O)(=O)c1ccc(NC(=O)CSC2=NC(c3ccccc3)C(C(C)=O)=C(C)N2)cc1 (configuration not stated) | growth | 103% (inactive)
COc1cc(/C=C/C(=O)c2ccc(C(F)(F)F)cc2)ccc1Oc1nc(Nc2ccc(F)cc2)nc(N(C)C)n1 | growth | 102% (inactive)
O=C(N/N=C/c1ccc(B(O)O)o1)c1[nH]c2ccc(Br)cc2c1-c1ccccc1 | growth | 44.3% (inactive)
O=C(Nc1nc2ccc([N+](=O)[O-])cc2s1)Nc1cc(Cl)ccc1I | growth | -44% (active)
Cc1ccc(-c2nc(Nc3ccc(S(N)(=O)=O)cc3)c3ccccc3n2)cc1 | growth | 66.7% (inactive)
COc1cc(Cn2c(C(F)(F)F)cc3c(Cl)ncnc32)ccn1 | growth | 32.1% (inactive)
CC[C@]12C=CCN3CC[C@@]4(c5cc(C#CCNc6ccc(C)c(Nc7nccc(-c8cccnc8)n7)c6)c(OC)cc5N(C)[C@H]4[C@@](O)(C(=O)OC)[C@@H]1OC(C)=O)C32 (some centres not stated) | growth | 64.2% (inactive)
S=c1nc(-c2ccccc2)cc(-c2cc3ccccc3nc2Cl)[nH]1 | growth | 72.7% (inactive)
CC(=O)Nc1ccc(-n2cnc3cc(-c4ccc(NS(C)(=O)=O)cc4)ccc32)cc1 | growth | 75.4% (inactive)
COC[C@@H](CC(C)C)N=C1N/C(=C\c2ccc3ncsc3c2)C(=O)N1C | growth | -9.28% (active)
COc1ccc(-c2nc(S(=O)(=O)c3ccc(C)cc3)c(S(=O)(=O)CC(=O)N(C)Cc3ccccc3)o2)cc1 | growth | 82.1% (inactive)
COC1=C[C@]23CCC(=O)N2CCc2cc4c(cc2[C@@H]3[C@@H]1OC(=O)CCCC(C)C)OCO4 | growth | 70.5% (inactive)
CN1CCc2c(sc3ncnc(N/N=C/c4ccc5ccccc5c4)c23)C1 | growth | 82% (inactive)
O=C(Nc1ccc(I)cc1F)c1cc(-c2ccc(F)cc2F)ccc1O | growth | -10.6% (active)
N#Cc1c(Cl)nc(SCc2ccc(F)cc2)nc1-c1ccc(F)cc1 | growth | 101% (inactive)

Ref: PubChem BioAssay (NCI)
